test system: IFN-gamma; assay: Cytokine release after LPS induction on human whole blood: IFNγ; type: cell-based; settings: human whole blood, inhibition of LPS induced inflammation; read-out: IC50 IFNγ
endpoint: log10 IC50 (log10 of the value in µM)
Recall that a logarithmic scale is used here: each number is log10 of IC50 in µM.

Some solved cases for reference:
molecule	endpoint	quantitative-result
O=C(O)c1cc(O)c(C(=O)Nc2ccccc2S(=O)(=O)O)cc1O [Ia-001c]	log10 IC50	-0.36
O=C(O)c1cc(O)c(C(=O)Nc2ccccc2-c2nnn[nH]2)cc1O [Ia-001a-Tz]	log10 IC50	2.00

Tell me its log10 IC50 given O=C(O)c1cc(O)cc(CSCc2cc(O)cc(C(=O)O)c2O)c1O [IVc-058a] as the entry.
1.03

Tell me its log10 IC50 given O=C(O)c1cc(O)cc(CS(=O)(=O)Cc2cc(O)cc(C(=O)O)c2O)c1O [IVc-059a] as the entry.
0.64

Tell me its log10 IC50 given O=C(O)Cc1cc(O)c(C(=O)Nc2ccccc2-c2nnn[nH]2)cc1O [IIIa-001aTz] as the entry.
1.28

Tell me its log10 IC50 given O=C(O)c1cc(NC(=O)c2cc(O)cc(C(=O)Nc3ccc(O)c(C(=O)O)c3)c2O)ccc1O [IIc-007a] as the entry.
-0.96

Tell me its log10 IC50 given COC(=O)c1cc(OC(C)=O)cc(CS(=O)(=O)Cc2cc(OC(C)=O)cc(C(=O)OC)c2OC(C)=O)c1OC(C)=O [IVc-059a-E2-A4] as the entry.
0.54

Tell me its log10 IC50 given O=C(O)Cc1cc(O)c(C(=O)Nc2c(C(=O)O)cccc2C(=O)O)cc1O [IIIa-013a] as the entry.
-0.82

Tell me its log10 IC50 given O=C(O)c1cc(O)c(C(=O)Nc2ccc(-c3nnn[nH]3)cc2)cc1O [Ia-003a-Tz] as the entry.
0.47

Tell me its log10 IC50 given CCOC(=O)c1cc(NC(=O)c2cc(O)c(C(=O)OCC)cc2O)cc(NC(=O)c2cc(O)c(C(=O)OCC)cc2O)c1 [Ib-010a-E3] as the entry.
0.45

###

molecular target: FGF-2 (Homo sapiens); test: FGF-2 induced sprouting of HUVEC, spheroid-based cellular angiogenesis assay; conditions: FGF-2 25 ng/mL preincubated with compound, 24 h
Sequence (P09038 134-288): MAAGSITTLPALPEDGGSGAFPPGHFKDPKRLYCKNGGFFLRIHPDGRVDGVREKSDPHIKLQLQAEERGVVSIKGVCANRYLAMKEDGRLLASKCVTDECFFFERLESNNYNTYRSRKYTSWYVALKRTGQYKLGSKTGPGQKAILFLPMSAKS
endpoint: IC50

Some solved cases for reference:
molecule	system-name	IC50
CCOC(=O)c1cc(OC(C)=O)c(C(=O)Nc2ccccc2-c2nnn[nH]2)cc1OC(C)=O [Ia-001a-Tz-E1-A2]	FGF-2 (Homo sapiens)	≥ 200 µM
O=C(O)c1ccc(NC(=O)c2cc(O)cc(C(=O)O)c2O)cc1C(=O)O [IIa-014a]	FGF-2 (Homo sapiens)	61 µM

Tell me its IC50 given COC(=O)c1cc(OC(C)=O)cc(CS(=O)(=O)Cc2cc(OC(C)=O)cc(C(=O)OC)c2OC(C)=O)c1OC(C)=O [IVc-059a-E2-A4] as the entry.
≥ 200 µM

Tell me its IC50 given O=C(O)c1cc(O)cc(C(=O)Nc2c(C(=O)O)cccc2C(=O)O)c1O [IIa-013a] as the entry.
12 µM

Tell me its IC50 given O=C(Nc1ccc(O)cc1C(=O)O)c1cc(O)c(C(=O)Nc2ccc(O)cc2C(=O)O)cc1O [Ic-009a] as the entry.
202 µM

Tell me its IC50 given CCOC(=O)Cc1ccccc1NC(=O)c1cc(O)cc(C(=O)OCC)c1O [IIa-034a-E2] as the entry.
164 µM

Tell me its IC50 given CCOC(=O)Cc1cc(O)c(C(=O)Nc2ccccc2C(=O)OC)cc1O [IIIa-001a-E2] as the entry.
33 µM

Tell me its IC50 given O=C(O)c1cc(O)c(C(=O)NCc2ccccc2C(=O)O)cc1O [Ia-053a] as the entry.
124 µM

Tell me its IC50 given O=C(O)c1cc(NC(=O)c2cc(O)c(C(=O)O)cc2O)cc(NC(=O)c2cc(O)c(C(=O)O)cc2O)c1 [Ib-010a] as the entry.
3.8 µM

Tell me its IC50 given CCOC(=O)c1cc(O)c(C(=O)Nc2ccccc2C(=O)OCC)cc1O [Ia-001a-E2] as the entry.
≥ 200 µM

Tell me its IC50 given CC(=O)N(Cc1cc(O)c(C(=O)O)cc1O)Cc1cc(O)c(C(=O)O)cc1O [IIIc-057a] as the entry.
77 µM

Tell me its IC50 given O=C(O)c1cc(O)c(CN(Cc2cc(O)c(C(=O)O)cc2O)Cc2cc(O)c(C(=O)O)cc2O)cc1O [IIIc-061a] as the entry.
7.6 µM
